Give measured Ratio for each item. Keep answers brief.
Target: Glutathione S-transferase Mu 1 (Mus musculus) (UniProt P10649)
Sequence (P10649 whole entry): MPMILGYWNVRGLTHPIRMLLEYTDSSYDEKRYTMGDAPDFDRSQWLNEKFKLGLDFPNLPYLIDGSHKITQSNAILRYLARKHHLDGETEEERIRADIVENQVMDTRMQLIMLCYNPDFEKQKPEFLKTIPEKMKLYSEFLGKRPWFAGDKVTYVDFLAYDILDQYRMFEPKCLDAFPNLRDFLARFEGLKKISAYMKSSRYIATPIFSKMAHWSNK
Test: Ratio is the compound /control(Specific activity in forestomach)
Format: functional, tissue-based
Conditions: Stomach
# print the numeric value only

response.value for CC1(O)C[C@@]23CCC4c5ccoc5C=C[C@@]4(C)C2CCC1C3 (some centres not stated) (field: Ratio) = 1.4

response.value for C[C@@]12CCc3occc3C1CC[C@@]13CC(CCC12)C(O)(CO)C3 (some centres not stated) (field: Ratio) = 1.2

response.value for C[C@@]12C=Cc3occc3C1CC[C@]13CCC(CCC12)C3 (some centres not stated) (field: Ratio) = 0.9

response.value for C[C@@]12CCc3occc3C1CC[C@]13CCC(CCC12)C3 (some centres not stated) (field: Ratio) = 1.1

response.value for C[C@@]12CCc3occc3C1CC[C@]13CC(=O)C(CCC12)C3 (some centres not stated) (field: Ratio) = 1.2

response.value for C[C@@]12CCc3occc3C1CC[C@]13CC(O)C(CCC12)C3 (some centres not stated) (field: Ratio) = 1.2

response.value for C[C@@]12C=Cc3occc3C1CC[C@@]13CC(CCC12)C(O)(CO)C3 (some centres not stated) (field: Ratio) = 2.1

response.value for C[C@@]12C=Cc3occc3C1CC[C@]13CC(=O)C(CCC12)C3 (some centres not stated) (field: Ratio) = 1.6

response.value for CC1(O)C[C@@]23CCC4c5ccoc5CC[C@@]4(C)C2CCC1C3 (some centres not stated) (field: Ratio) = 1

response.value for CC(=O)OC1C[C@@]23CCC4c5ccoc5C=C[C@@]4(C)C2CCC1C3 (some centres not stated) (field: Ratio) = 1.4

response.value for CC(=O)OC1C[C@@]23CCC4c5ccoc5CC[C@@]4(C)C2CCC1C3 (some centres not stated) (field: Ratio) = 1.1

response.value for C[C@@]12C=Cc3occc3C1CC[C@]13CC(O)C(CCC12)C3 (some centres not stated) (field: Ratio) = 1.5

* * *

Give measured Specific activity (uM min-1 (mg of protein)-1) for each item. Keep answers brief.
Target: Glutathione S-transferase Mu 1 (Mus musculus) (UniProt P10649)
Assay: GST activity in the cytosols of small bowel mucosa of ICR/Ha mice was determined by using 1-Chloro-2,4-di nitrobenzene as the substrate.
Type: functional
# print the numeric value only

response.value for C[C@@]12C=Cc3occc3C1CC[C@]13CC(=O)C(CCC12)C3 (stereo partly drawn) (field: Specific activity (uM min-1 (mg of protein)-1)) = 1.84

response.value for C[C@@]12CCc3occc3C1CC[C@@]13CC(CCC12)C(O)(CO)C3 (stereo partly drawn) (field: Specific activity (uM min-1 (mg of protein)-1)) = 1.36

response.value for CC1(O)C[C@@]23CCC4c5ccoc5C=C[C@@]4(C)C2CCC1C3 (stereo partly drawn) (field: Specific activity (uM min-1 (mg of protein)-1)) = 1.34

response.value for C[C@@]12C=Cc3occc3C1CC[C@]13CC(O)C(CCC12)C3 (stereo partly drawn) (field: Specific activity (uM min-1 (mg of protein)-1)) = 1.72

response.value for C[C@@]12CCc3occc3C1CC[C@]13CC(=O)C(CCC12)C3 (stereo partly drawn) (field: Specific activity (uM min-1 (mg of protein)-1)) = 2.06

response.value for CC(=O)OC1C[C@@]23CCC4c5ccoc5C=C[C@@]4(C)C2CCC1C3 (stereo partly drawn) (field: Specific activity (uM min-1 (mg of protein)-1)) = 2.06

response.value for C[C@@]12C=Cc3occc3C1CC[C@@]13CC(CCC12)C(O)(CO)C3 (stereo partly drawn) (field: Specific activity (uM min-1 (mg of protein)-1)) = 2.21

response.value for CC(=O)OC1C[C@@]23CCC4c5ccoc5CC[C@@]4(C)C2CCC1C3 (stereo partly drawn) (field: Specific activity (uM min-1 (mg of protein)-1)) = 1.83
